target under test: Follistatin-related protein 3 (Homo sapiens)
protocol summary: FSTL3 binders on small-molecule microarrays, primary screen, biochemical, small-molecule microarray, 635 nm fluorescence (AID 1105);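 further: score merges emission near 667 nm and signal to noise per printed spot across three slides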
condition set: FSTL3 binding, higher = more signal
The label depends only on composite z-score: Satisfied if it is at least 0.2, Not satisfied if it is smaller.

compound: CN(C)CCCCNC(=O)[C@H]1C[C@H]2C(=O)N[C@@H](CCCC[N+](C)(C)C)C(=O)N2[C@H]1c1ccc(O)cc1
target under test: Follistatin-related protein 3 (Homo sapiens)
group label: Not satisfied
//
compound: CCCNC(=O)[C@@]1(C)c2ccccc2C(=O)N(Cc2ccccc2)[C@H]1c1ccc(CO)cc1
target under test: Follistatin-related protein 3 (Homo sapiens)
group label: Not satisfied
//
compound: COCCOC(=O)N1C(=O)[C@@]2(c3cc(C#CCC(C(=O)OC)C(=O)OC)ccc31)[C@H](C(=O)NC[C@H](O)c1ccccc1)[C@H]1C(=O)O[C@H](c3ccccc3)[C@H](c3ccccc3)N1[C@@H]2c1ccc(O)cc1
target under test: Follistatin-related protein 3 (Homo sapiens)
group label: Not satisfied
//
compound: CC1(C)C(=O)C(c2ccccc2)=C2CN3C(=O)N(CCc4ccccc4)C(=O)C3(Cc3ccc(F)cc3)C=C21 (configuration not stated)
target under test: Follistatin-related protein 3 (Homo sapiens)
group label: Not satisfied
//
compound: CN(C)CCCNC(=O)[C@@H]1c2ccccc2C(=O)N(C2CCCCC2)[C@H]1c1ccc(CO)cc1
target under test: Follistatin-related protein 3 (Homo sapiens)
group label: Satisfied
//
compound: CCOC(=O)C[C@H]1[C@H](OC(=O)c2cc3ccccc3oc2=O)[C@@H](NC(=O)c2ccc3ccccc3c2)c2cc(OCCCO)ccc2N1C(=O)Cc1ccc(OC)cc1
target under test: Follistatin-related protein 3 (Homo sapiens)
group label: Satisfied
//
compound: C=C[C@@H](C)[C@H](O)c1ccc(OCCO)cc1
target under test: Follistatin-related protein 3 (Homo sapiens)
group label: Not satisfied
//
compound: CCOC(=O)C[C@H]1[C@H](OC(=O)c2ccc(C(=O)c3ccccc3)cc2)[C@@H](NC(=O)CC(C)C)c2cc(OCCCO)ccc2N1C(=O)Cc1ccc(OC)cc1
target under test: Follistatin-related protein 3 (Homo sapiens)
group label: Satisfied
//
compound: C=C(C(=O)CC[C@@H](OC(=O)c1ccccc1-c1ccccc1C(=O)O)c1ccccc1OCCO)C(C)C
target under test: Follistatin-related protein 3 (Homo sapiens)
group label: Satisfied
//
compound: O=C(NCC(O)CO)[C@@]1(CCS(=O)(=O)c2ccccc2)COC(c2ccc(OCCCO)cc2)=N1 (some centres not stated)
target under test: Follistatin-related protein 3 (Homo sapiens)
group label: Not satisfied
//
compound: COc1ccc(C#Cc2ccc3c(c2)[C@]2(C(=O)N3)[C@H](c3ccc(OCCO)cc3)N3[C@H](c4ccccc4)[C@H](c4ccccc4)OC(=O)[C@H]3[C@@H]2C(=O)N2CCc3cc(OC)c(OC)cc3C2)cc1
target under test: Follistatin-related protein 3 (Homo sapiens)
group label: Satisfied
//
compound: C=CCNC(=O)[C@@H]1[C@H]2C(=O)O[C@H](c3ccccc3)[C@H](c3ccccc3)N2[C@H](c2ccc(O)cc2)[C@@]12C(=O)Nc1ccc(C#CCC(C(=O)OC)C(=O)OC)cc12
target under test: Follistatin-related protein 3 (Homo sapiens)
group label: Satisfied
//
compound: C=CCC(OC(C)=O)[C@@H]1[C@@H](N(Cc2ccc(-c3cccc(C(F)(F)F)c3)o2)C(=O)c2ccc(C)cc2)c2cc(OCCCO)ccc2N1C(=O)Cc1ccc(OC)cc1 (some centres not stated)
target under test: Follistatin-related protein 3 (Homo sapiens)
group label: Satisfied
//
compound: COC(=O)[C@@]1(Cc2ccc(OC)cc2)[C@H]2c3cc(C(=O)N4CCCC4)n(Cc4ccc(S(C)(=O)=O)cc4)c3C[C@H]2CN1C(=O)c1ccccc1
target under test: Follistatin-related protein 3 (Homo sapiens)
group label: Not satisfied
//
compound: C=CCNC(=O)[C@@H]1[C@H]2C(=O)O[C@H](c3ccccc3)[C@H](c3ccccc3)N2[C@H](c2ccc(OCCO)cc2)[C@@]12C(=O)N(C(=O)OCCOC)c1ccc(C#CCCO)cc12
target under test: Follistatin-related protein 3 (Homo sapiens)
group label: Satisfied
//
compound: COCCCNC(=O)[C@@H]1c2ccccc2C(=O)N(C2Cc3ccccc3C2)[C@H]1c1ccc(CO)cc1
target under test: Follistatin-related protein 3 (Homo sapiens)
group label: Not satisfied
//
compound: CC(C)[Si]1(C(C)C)OCc2cc(-c3ccc(-c4ccc(Cl)c(Cl)c4)o3)nc(CCc3ccccc3)c21
target under test: Follistatin-related protein 3 (Homo sapiens)
group label: Not satisfied
//
compound: COC(=O)C(CC#Cc1ccc2c(c1)[C@]1(C(=O)N2)[C@H](C(=O)Nc2nc3ccccc3s2)[C@H]2C(=O)O[C@H](c3ccccc3)[C@H](c3ccccc3)N2[C@@H]1c1ccc(OCCO)cc1)C(=O)OC
target under test: Follistatin-related protein 3 (Homo sapiens)
group label: Satisfied
//
compound: COc1ccc([Si](C)(C)[C@@H]2[C@@H](CC(=O)N3Cc4ccccc4C[C@H]3CO)O[C@]3(C(=O)N(c4ccccc4)c4ccccc43)[C@H]2C)cc1
target under test: Follistatin-related protein 3 (Homo sapiens)
group label: Satisfied
//
compound: CCOC(=O)C1=C[C@@H](C(C)(C)C)N(S(=O)(=O)c2ccc(C)cc2)[C@H]1c1ccc(C)cc1
target under test: Follistatin-related protein 3 (Homo sapiens)
group label: Satisfied
//
compound: C=CCC(OC(C)=O)[C@@H]1[C@@H](N(Cc2ccc(-c3cccc(C(F)(F)F)c3)o2)C(=O)Cc2ccc(OC)cc2)c2cc(OCCCO)ccc2N1C(=O)Cc1ccc2ccccc2c1 (some centres not stated)
target under test: Follistatin-related protein 3 (Homo sapiens)
group label: Not satisfied
//
compound: COc1ccc([Si](C)(C)[C@H]2[C@H](CC(=O)N3Cc4ccccc4C[C@H]3CO)O[C@@]3(C(=O)N(Cc4ccc(N5C(=O)c6cccc7cccc5c67)cc4)c4ccccc43)[C@@H]2C)cc1
target under test: Follistatin-related protein 3 (Homo sapiens)
group label: Satisfied
//
compound: COC(=O)[C@@]1(Cc2ccccc2CN=[N+]=[N-])N=C(c2ccc(OCCCO)cc2)O[C@H]1c1ccccc1CN=[N+]=[N-]
target under test: Follistatin-related protein 3 (Homo sapiens)
group label: Not satisfied
//
compound: COc1cc(NN2C(C(O)c3cc(OC)c(OC)c(OC)c3)C=CC3C(=O)N(c4ccccc4)C(=O)C32)cc(OC)c1OC (configuration not stated)
target under test: Follistatin-related protein 3 (Homo sapiens)
group label: Satisfied
//
compound: C=CC[C@H](OC(=O)Nc1ccc(SC)cc1)c1ccc(OCCO)cc1
target under test: Follistatin-related protein 3 (Homo sapiens)
group label: Not satisfied
//
compound: COCC1C2CC[C@H]3C(OCc4ccc(OC)cc4)OC[C@]4(C)[C@H]3C2=C(CN4C(=O)OC(C)(C)C)[C@H](C)C1COC (some centres not stated)
target under test: Follistatin-related protein 3 (Homo sapiens)
group label: Satisfied
